# assayTarget: UniProt P35354
# Sequence (P35354 18-604): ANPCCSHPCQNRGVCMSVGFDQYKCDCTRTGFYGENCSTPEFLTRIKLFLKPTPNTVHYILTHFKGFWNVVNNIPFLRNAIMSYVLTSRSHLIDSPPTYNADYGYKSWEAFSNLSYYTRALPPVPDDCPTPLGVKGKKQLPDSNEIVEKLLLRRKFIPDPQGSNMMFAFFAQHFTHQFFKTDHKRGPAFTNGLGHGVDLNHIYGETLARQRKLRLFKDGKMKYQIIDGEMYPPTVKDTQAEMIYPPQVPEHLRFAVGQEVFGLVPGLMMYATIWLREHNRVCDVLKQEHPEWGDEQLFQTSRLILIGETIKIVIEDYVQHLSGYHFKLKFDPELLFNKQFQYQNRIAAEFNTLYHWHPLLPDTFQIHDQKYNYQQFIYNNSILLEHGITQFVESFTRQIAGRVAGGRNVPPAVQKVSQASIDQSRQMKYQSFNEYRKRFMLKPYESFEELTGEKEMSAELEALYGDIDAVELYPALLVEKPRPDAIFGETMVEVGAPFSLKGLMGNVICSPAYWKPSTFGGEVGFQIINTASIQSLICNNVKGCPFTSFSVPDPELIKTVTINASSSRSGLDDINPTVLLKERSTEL
experimentalEndpoint: IC50
Answer as a quantity: numeral, then unit.

Return reported IC50; argument: O=C(/C=C/c1ccc(O)c(O)c1)OC1C(O)CC(OC(=O)/C=C/c2ccc(O)c(O)c2)(C(=O)O)CC1O (stereo not shown) 14.8 µM
